Here the recorded scatter score 0-4, MLP29, 0.111 nM is given for each entry.
Target: native mouse MET on living cells (mouse, UniProt P16056 25-1379)
Assay: cell-based or functional assay
Please give a number only; it is taken to be in score.

Ask: Given 71G3 chimeric llama-human IgG1 mAb (antibody, V domains shown, llama VH on human IgG1 CH1-CH2-CH3, llama VL on human lambda CL) VH: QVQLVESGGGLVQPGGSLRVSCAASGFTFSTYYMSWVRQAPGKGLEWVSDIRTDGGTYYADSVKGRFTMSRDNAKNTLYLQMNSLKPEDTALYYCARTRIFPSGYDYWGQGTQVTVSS VL: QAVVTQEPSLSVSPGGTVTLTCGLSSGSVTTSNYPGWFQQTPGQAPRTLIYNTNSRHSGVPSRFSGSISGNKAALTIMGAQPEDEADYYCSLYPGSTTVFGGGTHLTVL , respond with its scatter score 0-4, MLP29, 0.111 nM.
Result: 2

Ask: Given 72F8 chimeric llama-human IgG1 mAb (antibody, V domains shown, llama VH on human IgG1 CH1-CH2-CH3, llama VL on human lambda CL) VH: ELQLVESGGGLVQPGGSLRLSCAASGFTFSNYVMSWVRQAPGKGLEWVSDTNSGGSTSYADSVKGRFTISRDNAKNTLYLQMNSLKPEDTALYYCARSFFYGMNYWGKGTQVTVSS VL: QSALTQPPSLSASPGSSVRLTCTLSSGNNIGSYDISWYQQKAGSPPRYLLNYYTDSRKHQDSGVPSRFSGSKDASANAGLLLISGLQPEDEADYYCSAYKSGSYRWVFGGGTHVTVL , respond with its scatter score 0-4, MLP29, 0.111 nM.
Result: 0

Ask: Given 71D6 chimeric llama-human IgG1 mAb (antibody, V domains shown, llama VH on human IgG1 CH1-CH2-CH3, llama VL on human lambda CL) VH: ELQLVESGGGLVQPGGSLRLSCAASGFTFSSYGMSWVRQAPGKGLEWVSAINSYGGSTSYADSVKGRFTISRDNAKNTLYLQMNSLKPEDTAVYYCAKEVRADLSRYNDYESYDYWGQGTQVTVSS VL: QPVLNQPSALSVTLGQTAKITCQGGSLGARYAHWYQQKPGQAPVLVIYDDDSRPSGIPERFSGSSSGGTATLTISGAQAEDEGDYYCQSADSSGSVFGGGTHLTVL , respond with its scatter score 0-4, MLP29, 0.111 nM.
Result: 4
